src = the DeepSol protein solubility set

test: soluble on expression in E. coli; label from the status in PepcDB or PDB records
Measured Attribute: soluble on expression in E. coli

MQRERTAESSLRVISKEKNSITVEMINYDNTLLRTLVEEILKDDQVDEARYYIKHPVIDNPQIYVRVKSGKPQSAIKRAVRKLSKLYEDLGTQFQKEFQRYESDHMIKAVE
soluble
MIAGGFGAGKTTAVGAVSEITPLSTEEYLTEASADVDSLAGLASKRTTTVAFDFGRLSLPDAPMPLELFLFGTPGQDRFVDLWYDLSRGAVGAVVLVDTRRLESSFTPVSFFEDIGLPFVVAVNRFDGAHRYHPEQVRAALELPAAVPVVTCDAREPNHVAGVLLALVDHAVNCAATTNRAGHTPSTTLQDALEHHHHHH
not soluble
MGSDKIHHHHHHMKRSEKKSMSSALKNGIMERTQPEKVVQMQGTADLSTSKLGTKKYWDELYALELENFRRNPQDTGDCWFSDSDAEQKMIDFLVDNIGAYRISENASVVDLGTGNGHMLFELHQTEFQGKLVGIDYSEESVKLASNIAEATGVDNFISFQQADIFSGDWKPGKYDIVLDKGTLDAISLSGMKINGKLDVVDVYAGVVERILKKDGIFLITSCNFTQDELVKIIETDNLKMWKTIKYPVFQFGGVQGATICSVAFVKQN
not soluble
MGSSHHHHHHMQPEHVKERYKNFLNQHVGPDMSVQRCNSEIGPNNRKITLSGTDNGCKPVNTFILANKRLIKTVCGRAGSPQGNMVRSNQPFPVVKCVLNNGERHPYCEYRGTRSTRYIVLKCEEGWPVHYHEDEVNVG
soluble
MQLDTIHKITGTLILKSGLHIGAGDSEMRIGGTDSPVVKDPLTDQPYIPGSSLKGKIRSLLEWRHGLVVATGGAPYSFKHLAQDENNSAGRDVIKLFGGAPDKAEDQLVKNIGPTRLAFWDCPLNGDWKKEAADSRHLLTTEVKSENSINRIAGTAEHPRFIERVIAGARFDFTLTLKVLEGDDLLNTVLLGLRLLELDSLGGSGSRGYGKIKFAELKLDGTDLMEQFHAITPFNQTA
not soluble

Query :: What does the data say about its soluble on expression in E. coli? Entry: MGSDKIHHHHHHMSTTASIENIDYWRHPSLSGIELSQAEFTHFSFDKHVHLDYHLGVVTQGAQQFVNKGSYYQLGQHSLSTLNPDDTHDGQSRDAEGYRVKVMSIPVEYMNEVSQELGLKEHFFSAPMVDDALLYHYFIHLHELLIQGQVTALASESHLFNFIQLLLRRHPSGILKCNSPQGLSTLQLGLVKQRMHDEPWHNTQLETLAGEVNLSKFQFLRQFKQATGMTPHAYLKRVRLELAKKSLCHGTLVADVAQQLGFFDQSHLNKAFKQAFLLSPVQFQRRML
Result :: not soluble

Query :: What does the data say about its soluble on expression in E. coli? Entry: MGSDKIHHHHHHMKAGLRIGLVGPLPPPSGGMANQTLQLAGLLREEHVEVELIQVNRPYRPGWIGRFKGIRAGFRLLSYVSQLWLSAGRVQLFHVMANSGWSWHLFAAPAIWIARLRGKPVIINYRGGEADSFFDKAFSWVKPSLSRANAIIVPSGFLEGVFGKRGFSASIVPNIIDLSRFGAGMRSDTSTVEAGPDSPHIIVTRNLEPIYDNETALRAFHIVRRSFPAAKLTLAGSGPERHTLEQLAFALGIGGAVTFTGRVDNEGMAAIYRSASVMLNPSLADNMPISILEALASGVPVVSTNVGGVPYLVEHEKNALLVPARDPQAMANAVLRLLNDAARTRRLIEAGMECVQRYTWPNVRVPLFRVYEQVLAAPDRSC
Result :: not soluble

Query :: What does the data say about its soluble on expression in E. coli? Entry: MRRLLWLLTLGALAVALTACPRKAEEEAATETAPAEETSLPGANVRVGLAFDAGGKFDRSFNQSAWEGAQRAAQELGVQIFDFEPADPSQVGQGIRTFAEEGFDLVIGVGFANEPAITATAKEFPNVKFAVIDAVPGEGQLPNALGVVFREHEGSFLVGYVAGKLSRTGVVGFIGGMDIPLIHKFEAGFRAGAEYAFQEDGIQGRVLVGYVGNTPAAWNDPAKAKEIASSQARQGADIIYAAAGGSGLGLIDFVKEEMCLREGGAVRFVREDRFADVPKYPAYEEKCGEGTTPLFFIGVDANQNYLGDTDNDPTTLNHGLTSMVKRVDVAVYDTIKSVVDGTFQGGVKDLGLAEEGVGYALDEYNQALIPEEVKARLEELKQAIINGEIQVPETR
Result :: soluble

Query :: What does the data say about its soluble on expression in E. coli? Entry: MSLAKVFTQEEREKIKGQVVELVRQSGRETLRQLEVKTGATRYLMSVLARELVASGDVYNSGYGLFPSEQARKDWQNARKKLSRAKVKKPAVVDPDLIWSSPDGEIRRYDSRLNIICRECRKSEAMQRVLAFYQGNFQEAVLEGHHHHHH
Result :: not soluble

Query :: What does the data say about its soluble on expression in E. coli? Entry: MNQIAIQETIQRLINQQVVPGVAWGTITEDSLSEQYTGFLGNTGPFARQKISSASLYDLASLTKVIGTTNRMLQLIDTNQLTFSTTVGEILPDYQGLSCSIGELLLHQSGLPADVVDKKNVTKKSLQEIILTHSLSERGKTTYSDLGYYLLGEIIQVLDRCSLEESFQTYVFQPMNLQHTSFTVSDFAQAVPTEITKQRGVIQGVVHDSKAYQLKAPIGSAGLFATLPDLLTFVQCFMNNRYPSGKPLFSEKMFTALWSMNQGGRTFGWEVKKTQAGADYLYHTGFTGTAIGMKKETKEALILLTNRIHPTREERGFLKARTKIYQQYF
Result :: not soluble

Query :: What does the data say about its soluble on expression in E. coli? Entry: MGSDKIHHHHHHMQIESFKSLLPKYKCIFFDAFGVLKTYNGLLPGIENTFDYLKAQGQDYYIVTNDASRSPEQLADSYHKLGLFSITADKIISSGMITKEYIDLKVDGGIVAYLGTANSANYLVSDGIKMLPVSAIDDSNIGEVNALVLLDDEGFNWFHDLNKTVNLLRKRTIPAIVANTDNTYPLTKTDVAIAIGGVATMIESILGRRFIRFGKPDSQMFMFAYDMLRQKMEISKREILMVGDTLHTDILGGNKFGLDTALVLTGNTRIDDAETKIKSTGIVPTHICESAVIEL
Result :: not soluble
